Sourced from paper PMC3369926

Test System: T1, TRAM-TIR (amino acid residues 66-235) (human, UniProt Q86XR7 66-235)
T1 construct: TRAM (TICAM-2), human, TIR domain, residues 66-235; also called TIR domain of human TRAM; TRAM TIR domain; source: purified; subcloned into a pGEX vector, obtained by a similar procedure as previously described for the MyD88-TIR
T1 sequence (Q86XR7 66-235): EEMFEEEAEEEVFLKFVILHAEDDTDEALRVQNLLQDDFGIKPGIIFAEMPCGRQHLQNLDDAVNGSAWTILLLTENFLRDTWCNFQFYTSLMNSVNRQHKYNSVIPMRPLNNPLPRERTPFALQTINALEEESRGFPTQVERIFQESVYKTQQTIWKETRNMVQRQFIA
Assay Summary: pull-down; GST fusion proteins held on Glutathione Sepharose 4B, three hours at 4°C; four washes with 20 mM potassium phosphate (pH 6.0), 100 mM KCl, 0.1 mM EDTA, 10 mM DTT, 0.5% Triton X100; SDS-PAGE with Coomassie staining; in triplicate
Test Context: both partners purified
Experimental Endpoint: binding result

INSERT INTO measurements (binder, result) VALUES
  ('GST-MyD88-TIR R217A (148-296) (domain or fragment, UniProt Q99836 148-296, looked up, MyD88, TIR domain, residues 148-296, with R217A; also called Site I mutant R217A; source: purified as GST fusion protein (pGEX vector), by methods previously described) TTLDDPLGHMPERFDAFICYCPSDIQFVQEMIRQLEQTNYRLKLCVSDRDVLPGTCVWSIASELIEKRCARMVVVVSDDYLQSKECDFQTKFALSLSPGAHQKRLIPIKYKAMKKEFPSILRFITVCDYTNPCTKSWFWTRLAKALSLP', 'binds'),
  ('GST-MyD88-TIR (wild type, amino acid residues 148-296) (domain or fragment, UniProt Q99836 148-296, looked up, MyD88, TIR domain, amino acid residues 148-296; also called wild-type MyD88-TIR; MyD88 TIR domain; source: purified as GST fusion protein (pGEX vector), by methods previously described) TTLDDPLGHMPERFDAFICYCPSDIQFVQEMIRQLEQTNYRLKLCVSDRDVLPGTCVWSIASELIEKRCRRMVVVVSDDYLQSKECDFQTKFALSLSPGAHQKRLIPIKYKAMKKEFPSILRFITVCDYTNPCTKSWFWTRLAKALSLP', 'binds'),
  ('GST-IL-18Rα-TIR (amino acid residues 374-541) (domain or fragment, UniProt Q13478 374-541, looked up, IL-18Rα (formerly IL-1Rrp), cytosolic TIR domain, residues 374-541; also called IL-18Rα TIR domain; IL-1Rrp TIR; source: purified as GST fusion protein (pGEX vector), by methods previously described) TYDAFVSYLKECRPENGEEHTFAVEILPRVLEKHFGYKLCIFERDVVPGGAVVDEIHSLIEKSRRLIIVLSKSYMSNEVRYELESGLHEALVERKIKIILIEFTPVTDFTFLPQSLKLLKSHRVLKWKADKSLSYNSRFWKNLLYLMPAKTVKPGRDEPEVLPVLSES', 'binds');
